Test system: H3K18Ac in HB-CLS-2 cells
Assay Info: H3K18AC in-cell western (ICW) assay
Assay type: cell-based
Conditions: H3K18Ac in-cell western; read-out: CREBBP ICW IC50
In this section we review reported IC50 values for a set of compounds.
All answers are understood in nM, so give the number only.

Recorded IC50, per entry:
CCc1ncc(CN(C)C(=O)c2nc(-c3cc4c(NC)n[nH]c4cc3C)nc3ccc(Cl)cc23)n1C; 55.4
CCn1ncc(CN(C)C(=O)c2cc(-c3ccc(NCCO)c(C)n3)nc3ccc(Cl)cc23)c1C; 80.4
CCn1ncc(CN(C)C(=O)c2nc(-c3cc(N)c4cn[nH]c4c3)nc3ccc(Cl)cc23)c1C; 84.8
CCn1ncc(CN(C)C(=O)c2cc(-n3cc4c(n3)CN(C(=O)OC(C)(C)C)CC4)nc3ccc(Cl)cc23)c1C; 17000
CCn1ncc(CN(C)C(=O)c2nc(-c3cc4nc[nH]c4cc3Cl)nc3ccc(Cl)cc23)c1C; 210
CCn1ncc(CN(C)C(=O)c2nc(-c3ccc(OCCNC(=O)OC(C)(C)C)c(Cl)c3)nc3ccc(Cl)cc23)c1C; 3000
CCc1ncc(CN(C)C(=O)c2nc(-c3cc(C)c4[nH]c(=O)[nH]c4c3)nc3ccc(Cl)cc23)n1C; 470
CCn1ncc(CN(C)C(=O)c2nc(-c3cc(C)nc(N[C@@H]4CCNC4)c3)nc3ccc(Cl)cc23)c1C; 49.7

Returns the measured IC50 for the input compound. Input: CCn1ncc(CN(C)C(=O)c2nc(-c3ccc(OCCNC)c(Cl)c3)nc3ccc(CN(C)C)cc23)c1C
20000

Returns the measured IC50 for the input compound. Input: CCn1ncc(CN(C)C(=O)c2nc(-c3cc(C)cc(NC4CCOCC4)c3)nc3ccc(Cl)cc23)c1C
1100

Returns the measured IC50 for the input compound. Input: CCn1ncc(CN(C)C(=O)c2nc(-c3ccc(OCCCNC(=O)OC(C)(C)C)c(C)c3)nc3ccc(Cl)cc23)c1C
7000

Returns the measured IC50 for the input compound. Input: CCn1ncc(CN(C)C(=O)c2cc(-c3cc4n[nH]cc4cn3)nc3ccc(COC)cc23)c1C
185

Returns the measured IC50 for the input compound. Input: CCn1ncc(CN(C)C(=O)c2nc(-c3cc4c(N)[nH]nc4cc3C)nc3ccc(COC)cc23)c1C
174

Returns the measured IC50 for the input compound. Input: CC1CCCc2c(CN(C)C(=O)c3cc(-c4cccc(Cl)c4)nc4ccc(Cl)cc34)cnn21 (stereo not drawn)
2500

Returns the measured IC50 for the input compound. Input: CCn1ncc(CN(C)C(=O)c2cc(-c3nn(C)c(C(=O)NC)c3C)nc3ccc(Cl)cc23)c1C
20000

---

Experimental Target: CREBBP (1084-1701) (Homo sapiens, UniProt Q92793)
Construct: measured in the following biochemical assay using CREBBP (1084-1701); purchased
Sequence (Q92793 1084-1701): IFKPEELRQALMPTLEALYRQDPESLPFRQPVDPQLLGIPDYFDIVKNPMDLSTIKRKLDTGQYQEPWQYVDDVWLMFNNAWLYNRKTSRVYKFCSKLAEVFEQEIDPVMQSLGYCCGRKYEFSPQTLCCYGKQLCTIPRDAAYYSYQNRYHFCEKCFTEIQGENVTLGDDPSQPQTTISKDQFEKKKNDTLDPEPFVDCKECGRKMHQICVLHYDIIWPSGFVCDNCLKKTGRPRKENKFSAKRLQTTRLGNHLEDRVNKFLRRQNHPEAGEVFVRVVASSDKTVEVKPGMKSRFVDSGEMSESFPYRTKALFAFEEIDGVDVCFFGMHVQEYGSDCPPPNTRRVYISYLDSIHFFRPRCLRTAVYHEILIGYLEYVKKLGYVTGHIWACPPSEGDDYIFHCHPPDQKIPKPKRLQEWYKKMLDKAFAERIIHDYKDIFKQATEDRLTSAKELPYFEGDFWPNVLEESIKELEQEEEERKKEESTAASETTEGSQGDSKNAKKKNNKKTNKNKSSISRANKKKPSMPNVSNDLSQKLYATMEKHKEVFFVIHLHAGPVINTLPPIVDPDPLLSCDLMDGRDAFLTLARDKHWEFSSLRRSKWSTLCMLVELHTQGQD
Assay Info: Biochemical assay for CREBBP (1084-1701), SAMDI
Conditions: SAMDI, read-out: CREBBP Biochemistry IC50
Property: pIC50
Field pIC50 (float): negative decimal logarithm of the concentration in molar.

Recorded pIC50, per entry:
CCn1ncc(CN(C)C(=O)c2cc(-c3ccc(NCCNC)c(C)n3)nc3ccc(Cl)cc23)c1C [Compound 3]; 7.68
CCn1ncc(CN(C)C(=O)c2nc(-c3ccc(OCCCN4CCCCC4)c(C)c3)nc3ccc(Cl)cc23)c1C; 7.16

Returns the measured pIC50 for the input compound. Input: CCn1ncc(CN(C)C(=O)c2nc(-c3cc(C)cc(CNC)c3)nc3ccc(Cl)cc23)c1C
7.00
